Tested system: IRAK4 (Homo sapiens, UniProt Q9NWZ3)
Construct: endogenous in cells; host or cells: Karpas299
Sequence (Q9NWZ3 whole entry): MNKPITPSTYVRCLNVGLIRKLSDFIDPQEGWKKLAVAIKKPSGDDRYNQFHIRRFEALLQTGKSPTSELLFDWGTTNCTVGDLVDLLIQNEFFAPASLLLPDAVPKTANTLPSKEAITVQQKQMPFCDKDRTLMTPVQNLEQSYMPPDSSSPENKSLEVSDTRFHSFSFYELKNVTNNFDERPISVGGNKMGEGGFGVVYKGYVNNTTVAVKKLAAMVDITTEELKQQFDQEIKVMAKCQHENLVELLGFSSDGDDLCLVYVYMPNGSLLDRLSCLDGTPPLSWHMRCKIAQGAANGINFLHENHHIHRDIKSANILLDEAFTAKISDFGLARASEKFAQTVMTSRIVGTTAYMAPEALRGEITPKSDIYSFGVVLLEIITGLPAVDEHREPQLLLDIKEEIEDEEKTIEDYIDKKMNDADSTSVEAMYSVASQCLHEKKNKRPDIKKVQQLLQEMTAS
Experiment description: IRAK4 Degradation Assay (Karpas299, HTRF/TR-FRET)
Type: cell-based
Run conditions: Karpas-299 cells, 24 h treatment; read-out: IRAK4 in Karpas-299 (24 h) DC50
Measurement kind: DC50 (nM)

Ask: Return DC50 (reported value) for this compound: `CC(C)(O)c1cc2nn(C3CCN(C4CCN(C(=O)[C@@H]5CCN(c6cc(F)c([C@H]7CCC(=O)NC7=O)c(F)c6)C5)CC4)CC3)cc2cc1NC(=O)c1ccc2cc(C#N)cnn12`
Reply: 1.3

Ask: Return DC50 (reported value) for this compound: `O=C1CC[C@H](c2c(F)cc(N3CC[C@@H](C(=O)N4CCN([C@H]5CC[C@H](n6cc(NC(=O)c7coc(-c8ccnc(NCC9CC9)c8)n7)c(C(F)F)n6)CC5)C(=O)C4)C3)cc2F)C(=O)N1`
Reply: 1.2

Ask: Return DC50 (reported value) for this compound: `COc1cc2nn([C@H]3CC[C@H](N4CCN(C5CCN(c6cc(F)c([C@H]7CCC(=O)NC7=O)c(F)c6)CC5)CC4)CC3)cc2cc1NC(=O)c1ccc2cc(C#N)cnn12`
Reply: 1.1

###

Tested system: IRAK4 (Homo sapiens)
Construct: endogenous in cells; host or cells: Karpas299
Experiment description: IRAK4 Degradation Assay (Karpas299, HTRF/TR-FRET)
Assay type: cell-based
Run conditions: Karpas-299 cells, 24 h treatment; maximum percentage of degradation; read-out: IRAK4 in Karpas-299 (24 h) Dmax (%)
Measurement kind: Dmax (%)

Look over these answered cases.
Ask: Return Dmax (reported value) for this molecule: `COc1cc2nn([C@H]3CC[C@H](N4CCN(CCc5cc(F)c([C@H]6CCC(=O)NC6=O)c(F)c5)CC4)CC3)cc2cc1NC(=O)c1ccc2cc(C#N)cnn12`
Reply: 96

Ask: Return Dmax (reported value) for this molecule: `CC(C)(O)c1cc2nn(C34CC(N5CCN(CC6CN(c7cc(F)c([C@H]8CCC(=O)NC8=O)c(F)c7)C6)CC5)(C3)C4)cc2cc1NC(=O)c1ccc2cc(C#N)cnn12`
Reply: 97

I = O=C1CCN(c2ccc(N3CC(N4CCN(C[C@H]5CC[C@H](n6cc(NC(=O)c7coc(-c8ccnc(NCC(F)(F)F)c8)n7)c(C(F)F)n6)CC5)CC4)C3)cc2)C(=O)N1
II = O=C1CC[C@H](c2c(F)cc(N3CC(C(=O)N4CCN([C@H]5CC[C@H](n6cc(NC(=O)c7cnn(-c8ccnc(NCC(F)(F)F)c8)n7)c(C(F)F)n6)CC5)CC4)C3)cc2F)C(=O)N1
Ask: Compare Dmax: is it lower for I or for II ? Choose, then provide that item's label.
Reply: I
(I: 9%, II: 96%)
